Each entry below carries its reported GI50.
# Test system: SNB-75
# procedure-text: NCI tumour cell line growth inhibition, 48 h
Active and inactive are the calls of the source. Rule as the data show it: active = GI50 up to about 1.1 µM and inactive = higher.

Request: Request the reported GI50 associated with "O=c1[nH]c2nc3ccccc3c(=O)n2nc1Cc1ccccc1"
Result: > 100 µM (inactive)

Request: // GI50 lookup, key: "O=C1c2ccsc2-c2cccc3cccc1c23.O=C1c2sccc2-c2cccc3cccc1c23"
Result: 3.27 µM (inactive)

Request: Look up GI50 for this molecule: "CN(C)CCCn1cnc2cc(Cl)c(Cl)cc21"
Result: 33.1 µM (inactive)

Request: # input molecule: COC(=O)C(C(=O)C(=O)Nc1ccc(N)cc1[N+](=O)[O-])c1nc2ccc(Cl)cc2nc1O (stereo not drawn) ; wanted: its GI50
Result: 32.4 µM (inactive)

Request: Can you look up the measured GI50 of "C=CCONC(=O)c1ccc(Cl)cc1" for me?
Result: 84.1 µM (inactive)

Further cases:
Request: Field request: GI50 | item: "COc1ccc(OC)c(CCc2cc(OC)c(OC)cc2C)c1"
Result: 16.8 µM (inactive)

Request: Quick one: GI50 of "CCOC(=O)c1nn2c(nc1=O)sc1ccc3ccccc3c12" ?
Result: > 100 µM (inactive)

Request: Entry under review: "COc1cc(N(Cc2ccc3oc(=O)c(-c4ccccc4)nc3c2)Cc2ccc3oc(=O)c(-c4ccccc4)nc3c2)cc(OC)c1OC" . Reported GI50?
Result: > 10 µM (inactive)

Request: Item under review: "O=C(NCc1ccccc1)c1cc2ccc(O)c(O)c2cn1" . Reported GI50?
Result: 17.8 µM (inactive)

Request: Which GI50 value belongs to "O=[N+]([O-])c1cccc2c1[nH]c1c(-c3ccccc3)nccc12" ?
Result: 2.4 µM (inactive)

Request: Recorded GI50 of "COC(=O)c1ccc(OCc2ccc3nc(OC)c(OC)nc3c2)cc1" , please.
Result: > 100 µM (inactive)

Request: Please look up its GI50: "Cc1cnc(-c2ccccc2)o1"
Result: > 100 µM (inactive)

Request: Entry under review: "Cn1cnc2c(OCC3CCCCC3)nc(N)nc21" . Reported GI50?
Result: 36.3 µM (inactive)

----------
# System: HL-60
# procedure-text: NCI tumour cell line growth inhibition, 48 h
Calls of active or inactive are those of the source. Cut-off read from the data, not from the text of the source: active = GI50 up to about 1.1 µM and inactive = higher.
In this exercise, the only acceptable responses are 1.0 (active), 0.0 (inactive)

Request: Give the logged outcome of this assay for the following compound: COc1cc([C@@H]2c3cc4c(cc3[C@@H](OC3OC5COC(C)OC5C(O)C3O)[C@H]3COC(=O)[C@H]23)OCO4)cc(OC)c1O (some centres undefined)
Result: 1.0

Request: Hi team, can someone confirm the assay call for CN(C(=O)C12C3(C(=O)C(C)(C)C)C4C5(C#N)C3C1(C(=O)C(C)(C)C)C5C42C(=O)C(C)(C)C)C(C)(C)C (centres undefined) ?
Result: 0.0

Request: Write down the call the test reported for this compound. Item: C/C1=C/C2=CC(C)C[C@@H]2C(=O)[C@]2(C)C(=O)CC(C)(C)[C@H]2CC1=O (some centres undefined)
Result: 0.0

More entries:
Request: Assay result, entry CCOC(=O)Cc1nc2c(O)ncnc2n1C1OC(COC(C)=O)C(OC(C)=O)C1OC(C)=O (centres undefined) — outcome?
Result: 0.0
